# Target desc: intracellular GCN2 (phosphorylation of the GCN2 substrate eIF2α) (Homo sapiens)
# Sequence (Q9P2K8 whole entry): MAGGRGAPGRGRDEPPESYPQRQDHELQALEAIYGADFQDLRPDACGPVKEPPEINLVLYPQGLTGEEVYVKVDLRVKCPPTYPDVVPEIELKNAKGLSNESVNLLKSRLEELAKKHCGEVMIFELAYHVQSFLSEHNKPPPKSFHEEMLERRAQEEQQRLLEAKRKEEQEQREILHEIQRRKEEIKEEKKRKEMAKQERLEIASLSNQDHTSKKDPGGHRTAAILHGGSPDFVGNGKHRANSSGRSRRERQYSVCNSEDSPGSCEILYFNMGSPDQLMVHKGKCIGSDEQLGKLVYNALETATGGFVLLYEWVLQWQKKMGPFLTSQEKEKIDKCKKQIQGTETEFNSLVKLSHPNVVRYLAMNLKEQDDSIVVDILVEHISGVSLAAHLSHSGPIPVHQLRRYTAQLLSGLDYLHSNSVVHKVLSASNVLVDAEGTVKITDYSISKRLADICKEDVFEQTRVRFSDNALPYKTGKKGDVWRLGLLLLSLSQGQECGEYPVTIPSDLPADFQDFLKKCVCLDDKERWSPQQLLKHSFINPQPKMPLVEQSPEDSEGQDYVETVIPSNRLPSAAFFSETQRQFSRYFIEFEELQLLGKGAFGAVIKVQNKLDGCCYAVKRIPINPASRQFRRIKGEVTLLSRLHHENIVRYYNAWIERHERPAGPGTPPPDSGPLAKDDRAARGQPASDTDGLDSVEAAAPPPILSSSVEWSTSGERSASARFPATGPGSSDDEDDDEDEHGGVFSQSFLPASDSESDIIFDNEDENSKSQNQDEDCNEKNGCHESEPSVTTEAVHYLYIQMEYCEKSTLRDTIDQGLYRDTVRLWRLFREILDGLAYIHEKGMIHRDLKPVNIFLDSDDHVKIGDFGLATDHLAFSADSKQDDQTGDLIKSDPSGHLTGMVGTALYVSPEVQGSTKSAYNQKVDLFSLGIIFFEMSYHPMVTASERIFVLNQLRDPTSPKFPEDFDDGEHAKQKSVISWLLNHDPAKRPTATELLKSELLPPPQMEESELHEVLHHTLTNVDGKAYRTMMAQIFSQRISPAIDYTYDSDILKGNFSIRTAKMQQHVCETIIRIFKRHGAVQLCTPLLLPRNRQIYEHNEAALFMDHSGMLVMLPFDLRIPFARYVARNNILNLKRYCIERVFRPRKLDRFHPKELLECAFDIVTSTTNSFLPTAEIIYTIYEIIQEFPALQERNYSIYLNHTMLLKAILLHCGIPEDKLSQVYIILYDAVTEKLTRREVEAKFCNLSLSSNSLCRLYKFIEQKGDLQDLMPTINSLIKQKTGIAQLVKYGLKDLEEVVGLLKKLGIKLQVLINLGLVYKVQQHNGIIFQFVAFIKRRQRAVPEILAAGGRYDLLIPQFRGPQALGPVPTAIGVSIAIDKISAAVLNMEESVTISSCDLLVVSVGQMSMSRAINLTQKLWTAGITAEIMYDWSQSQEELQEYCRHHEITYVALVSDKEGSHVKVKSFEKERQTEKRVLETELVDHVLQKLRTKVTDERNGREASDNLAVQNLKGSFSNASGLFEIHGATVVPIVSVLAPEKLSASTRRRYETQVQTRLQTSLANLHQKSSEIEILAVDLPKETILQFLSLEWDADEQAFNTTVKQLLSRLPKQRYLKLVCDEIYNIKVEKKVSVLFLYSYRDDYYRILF
# Assay: GCN2 cellular inhibition assay (AlphaScreen SureFire P-eIF2α Ser51, borrelidin-treated U2OS cells)
# Assay type: cell-based
# Experimental setup: compounds of Formula II; biomarker assay, phosphorylated eIF2α Ser51 in borrelidin-treated U2OS cells
Property: IC50

> print(dat)
                                    compound                               target.desc  recorded.result
 1  O=C1NCC2CN(c3cc(-c4cnc5ccc(C(F)F)nn45)ccn3)CCN12 (centres unmarked) [II-175]  intracellular GCN2 (phosphorylation of the GCN2 substrate eIF2α) (Homo sapiens)      0.5 to 5 µM
 2  CN1CC2(C1)CN(c1cc(-c3cnc4ccc(C(F)F)nn34)cc(N3CCCC(CNS(C)(=O)=O)C3)n1)C2 (centres unmarked)  intracellular GCN2 (phosphorylation of the GCN2 substrate eIF2α) (Homo sapiens)         < 0.5 µM
 3  O=C1NCC2CN(c3cc(-c4cnc5ccc(C(F)F)nn45)ccn3)CCN12 (centres unmarked) [II-172]  intracellular GCN2 (phosphorylation of the GCN2 substrate eIF2α) (Homo sapiens)      0.5 to 5 µM
 4  CS(=O)(=O)NC[C@@H]1CN(c2cc(-c3cnc4ccc(C(F)(F)F)nn34)ncn2)CCO1  intracellular GCN2 (phosphorylation of the GCN2 substrate eIF2α) (Homo sapiens)      0.5 to 5 µM
 5  CC1C(CNS(C)(=O)=O)OC(C)(C)CN1c1cc(-c2cnc3ccc(C(F)F)nn23)ncn1 (single isomer, unassigned) [II-489]  intracellular GCN2 (phosphorylation of the GCN2 substrate eIF2α) (Homo sapiens)           > 5 µM
 6  CC1C[S+]([O-])CCN1c1cc(-c2cnc3ccc(C(F)F)nn23)ncn1 (single isomer, unassigned) [II-355]  intracellular GCN2 (phosphorylation of the GCN2 substrate eIF2α) (Homo sapiens)           > 5 µM
 7  CS(=O)(=O)NCC1CN(c2cc(-c3cnc4ccc(C(F)F)nn34)ncn2)CC2(CC2)O1 (centres unmarked) [II-375]  intracellular GCN2 (phosphorylation of the GCN2 substrate eIF2α) (Homo sapiens)         < 0.5 µM
 8  CS(=O)(=O)NC[C@H]1CN(c2cc(-c3cnc4ccc(C(F)F)nn34)ncn2)C[C@@H](C(F)(F)F)O1  intracellular GCN2 (phosphorylation of the GCN2 substrate eIF2α) (Homo sapiens)      0.5 to 5 µM
 9   FC(F)c1ccc2ncc(-c3cc(C4CCOCC4)ncn3)n2n1  intracellular GCN2 (phosphorylation of the GCN2 substrate eIF2α) (Homo sapiens)           > 5 µM
10  CC1C(CNS(C)(=O)=O)CCCN1c1cc(-c2cnc3ccc(C(F)F)nn23)ncn1 (centres unmarked) [II-221]  intracellular GCN2 (phosphorylation of the GCN2 substrate eIF2α) (Homo sapiens)         < 0.5 µM
11     Clc1ccc2ncc(-c3ccnc(-c4ccccc4)c3)n2n1  intracellular GCN2 (phosphorylation of the GCN2 substrate eIF2α) (Homo sapiens)           > 5 µM
12  CC1(O)CC(CNS(C)(=O)=O)CN(c2cc(-c3cnc4ccc(C(F)F)nn34)ncn2)C1 (single isomer, unassigned) [II-5]  intracellular GCN2 (phosphorylation of the GCN2 substrate eIF2α) (Homo sapiens)           > 5 µM
13  CC1CCC(CNS(C)(=O)=O)CN1c1cc(-c2cnc3ccc(C(F)F)nn23)ncc1F (centres unmarked)  intracellular GCN2 (phosphorylation of the GCN2 substrate eIF2α) (Homo sapiens)      0.5 to 5 µM
14  CCC1C(CNS(C)(=O)=O)CCCN1c1cc(-c2cnc3ccc(C(F)F)nn23)ncn1 (centres unmarked) [II-391]  intracellular GCN2 (phosphorylation of the GCN2 substrate eIF2α) (Homo sapiens)         < 0.5 µM
15  CC(NS(C)(=O)=O)C1CN(c2cc(-c3cnc4ccc(C(F)F)nn34)ncn2)CCN1C (centres unmarked) [II-474]  intracellular GCN2 (phosphorylation of the GCN2 substrate eIF2α) (Homo sapiens)      0.5 to 5 µM
16  Cc1ccc2ncc(-c3cc(N4CCO[C@H](CNS(C)(=O)=O)C4)ncn3)n2n1  intracellular GCN2 (phosphorylation of the GCN2 substrate eIF2α) (Homo sapiens)      0.5 to 5 µM
17  FC(F)c1ccc2ncc(-c3cc(N4CCCC(Cn5ccnn5)C4)ncn3)n2n1 (centres unmarked)  intracellular GCN2 (phosphorylation of the GCN2 substrate eIF2α) (Homo sapiens)           > 5 µM

Origin of the recorded values: patent US10988477B2
